The entries below are paired with their reported GI50.
System: DU-145
Assay: NCI tumour cell line growth inhibition, 48 h
The source made the active and inactive calls. Cut-off read from the data, not from the text of the source: active = GI50 up to about 1.1 µM and inactive = higher.

Example cases with answers are listed next.
compound | GI50
NC(=O)c1cc2cc(Cl)cc(Cl)c2o/c1=N\c1ccc(F)cc1 | 19 µM (inactive)
CC(=O)c1ccc(NCc2cc(O)ccc2O)cc1 | 23 µM (inactive)
CC1(O)CC2(O)C=CC3=C(C(=O)c4cccc(O)c4C3=O)C2(O)C(=O)C1O (centres undefined) | 18.4 µM (inactive)

Kindly review the next compound as well.
### Prompt Fill in GI50 for record CC1=NN(c2ccc(S(=O)(=O)O)cc2)C2(C1)SCC(=O)N2c1nc2ccccc2s1 (centres undefined)
### Response > 100 µM (inactive)
